METHOD_DESCRIPTION: small-molecule binders of probe aInhba, primary screen, biochemical, small-molecule microarray, 635/667 nm fluorescence (AID 1148);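 further: score merges 667nm spot fluorescence with signal-to-noise for antibody binding to printed compounds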
CONDITION_CONTEXT: higher = more signal
Mark false for composite z-score values under 0.02, and true for everything at or above.

Worked examples, 6 molecules total:
[
  {
    "MOLECULE": "COc1ccc([Si](C)(C)[C@@H]2[C@@H](CCn3cc([C@H](O)c4ccccc4)nn3)O[C@]3(C(=O)N(C)c4c(Br)cc(C)cc43)[C@H]2C)cc1",
    "ASSIGNED_LABEL": "true"
  },
  {
    "MOLECULE": "COCCOC(=O)N1C(=O)[C@@]2(c3cc(C#CCNC(N)=O)ccc31)[C@H](c1ccccc1OCCO)N1[C@H](c3ccccc3)[C@H](c3ccccc3)OC(=O)[C@H]1[C@@H]2C(=O)Nc1nc2ccccc2s1",
    "ASSIGNED_LABEL": "true"
  },
  {
    "MOLECULE": "C[N+](C)(C)CCCCNC(=O)[C@@H]1C[C@@H]2C(=O)NCC(=O)N2[C@@H]1c1cccc(OCCO)c1",
    "ASSIGNED_LABEL": "true"
  },
  {
    "MOLECULE": "CC(C)N1CC=CC23O[C@@H]4/C=C\\CCCOC(=O)C4[C@H]2C(=O)N(CCCO)[C@@H]3C1=O (some centres not stated)",
    "ASSIGNED_LABEL": "false"
  },
  {
    "MOLECULE": "CC(C)(C)OC(=O)CC[C@@]12N=C(c3ccc(OCCCO)cc3)O[C@@H]1c1ccccc1N(Cc1ccccc1)C2=O",
    "ASSIGNED_LABEL": "true"
  },
  {
    "MOLECULE": "COc1ccc(C#Cc2ccc3c(c2)[C@]2(C(=O)N3)[C@H](c3ccc(O)cc3)N3[C@H](c4ccccc4)[C@H](c4ccccc4)OC(=O)[C@H]3[C@@H]2C(N)=O)cc1",
    "ASSIGNED_LABEL": "false"
  }
]

### Prompt Does composite z-score meet or surpass 0.02 for C=CCN1C(=O)[C@@]2(O[C@@H](CCO)[C@H]([Si](C)(C)c3ccc(OC)cc3)[C@H]2C)c2cc(N3C(=O)c4cccc5cccc3c45)ccc21 ?
### Response false

---

Tested on: Plasmodium falciparum Sir2 (PF13_0152, Sir2A)
METHOD_DESCRIPTION: pfSir2 binders on small-molecule microarrays, primary screen, biochemical, small-molecule microarray, 635 nm fluorescence (AID 1098);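 further: score merges spot fluorescence intensity with its signal-to-noise ratio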
CONDITION_CONTEXT: small-molecule microarray binding, fluorescence 635 nm; higher = more signal
# composite z-score binned as low interval (below 0.7), middle interval (0.7 to below 1), high interval (1 or more)

[
  {
    "COMPOUND": "NCCCCCCNC(=O)[C@@H]1C[C@@H]2C(=O)N[C@@H](Cc3ccccc3)C(=O)N2[C@@H]1c1ccc(O)cc1",
    "ASSIGNED_LABEL": "middle interval"
  }
]

### Prompt Which bin, given its composite z-score, does C=CC[C@@H](OC(=O)Nc1ccc(SC)cc1)c1ccc(OCCO)cc1 occupy?
### Response high interval

### Prompt Try CC(C)(C)OC(=O)CC[C@@]1(C(=O)NCc2ccccc2)N=C(c2ccc(OCCCO)cc2)O[C@@H]1c1ccccc1CN=[N+]=[N-] next.
### Response high interval

### Prompt Try C=CCN1C(=O)[C@@]2(O[C@@H](CCn3cc(CCO)nn3)[C@H]([Si](C)(C)c3ccc(OC)cc3)[C@H]2C)c2cc(NC(=O)c3ccc(OC)cc3)ccc21 next.
### Response high interval

### Prompt Try CC(C)NC(=O)[C@@H]1c2ccccc2C(=O)N(Cc2cc(F)cc(C(F)(F)F)c2)[C@H]1c1ccc(CO)cc1 next.
### Response high interval

### Prompt Try CCCCCCC#C[Si](O[C@H](c1ccccc1)c1cn(Cc2ccccc2)nn1)(C(C)C)C(C)C next.
### Response low interval

### Prompt Try C[C@@H](OCc1ccccc1)C1NC(=O)[C@@]23C(=O)N[C@@H](Cc4ccccc4)C2[C@H](C)[C@@]2(C)O[C@H]2C3/C=C/C/C=C\CNC(=O)[C@@H]2CCCN2C1=O (some centres undefined) next.
### Response low interval

### Prompt Try [N-]=[N+]=Nc1ccccc1[C@H]1OC(c2ccc(OCCCO)cc2)=N[C@@]1(Cc1ccccc1)C(N)=O next.
### Response middle interval

### Prompt Try C=CCNC(=O)[C@@H]1[C@H]2C(=O)O[C@H](c3ccccc3)[C@H](c3ccccc3)N2[C@H](c2ccc(O)cc2)[C@@]12C(=O)Nc1ccc(C#Cc3ccc(OC)cc3)cc12 next.
### Response middle interval

### Prompt Try COCCCN1C(=O)[C@@]2(Cc3ccccc31)c1ccccc1C(=O)N(Cc1ccccc1Cl)[C@H]2c1ccc(CO)cc1 next.
### Response low interval

### Prompt Try Cc1ccc(N2C(=O)c3ccccc3[C@](C)(C(=O)NC3CC3)[C@@H]2c2ccc(CO)cc2)nc1 next.
### Response low interval

### Prompt Try C=C(CCCC)/C(=C/C[C@H](OC(=O)c1ccncc1)c1ccc(CO)o1)c1cnc2ccccc2c1 next.
### Response high interval

### Prompt Try CCCC[C@@H](O)C1=C(C)C[C@H]2C(=O)N(C)C(=O)[C@H]2[C@H]1CO next.
### Response high interval

### Prompt Try COCCOC(=O)N1C(=O)[C@@]2(c3cc(C#CC4(O)CCCCCC4)ccc31)[C@H](c1ccccc1OCCO)N1[C@H](c3ccccc3)[C@H](c3ccccc3)OC(=O)[C@H]1[C@@H]2C(=O)Nc1nc2ccccc2s1 next.
### Response middle interval

### Prompt Try C=C(/C(=C/C[C@H](OC(C)=O)c1cccc(OCCO)c1)c1cc(C(=O)OC)ccc1OC)C(C)C next.
### Response middle interval

### Prompt Try [N-]=[N+]=NCc1ccccc1C[C@@]1(C(=O)O)N=C(c2ccc(OCCCO)cc2)O[C@@H]1c1ccccc1 next.
### Response high interval

### Prompt Try O=C(NC1CC1)[C@@H]1c2ccccc2C(=O)N(Cc2ccccc2C(F)(F)F)[C@H]1c1ccc(CO)cc1 next.
### Response low interval

### Prompt Try CC1CC/C=C\[C@H]2OC34C=CCN(C(C)C)C(=O)[C@H]3N(C(CO)C(C)C)C(=O)[C@@H]4C2C(=O)O1 (some centres undefined) next.
### Response low interval
